# PROCEDURE_DETAILS: Toxicity liver stage against HepG2, at 10uM
# Assay type: cell-based
# Parameters: test concentration 10 uM, cell line HepG2-A16-CD81EGFP
# TEST_SETTINGS: human, HepG2-A16-CD81EGFP cells; read-out: INHIBITION
READOUT_TYPE: cytotoxicity at 10 µM (%)

| MOLECULE | READOUT_TYPE | OBSERVED_RESULT |
| --- | --- | --- |
| COc1ccc(C)c2c1N(C(=O)c1cnc3onc(C)c3c1)CCC2 | cytotoxicity at 10 µM | -1.67 |
| CCc1ccc(NC(=O)C(C)N2CCN(Cc3ncc[nH]3)CC2)cc1 (stereo unspecified) | cytotoxicity at 10 µM | -7.83 |
| O=C(NCC(F)F)c1ccc(S(=O)(=O)NCCc2ccncc2)cc1 | cytotoxicity at 10 µM | -7.88 |
| CC(C)OC[C@H]1CCC[C@]12CN(S(=O)(=O)c1cccs1)CCO2 | cytotoxicity at 10 µM | -1.52 |
| Cc1cc(NCCOCCS(C)(=O)=O)nc2ccccc12 | cytotoxicity at 10 µM | 4.4 |
| C[C@@H]1CN(C(=O)C2(N3CCCCC3)Cc3ccccc3C2)C[C@H](C)O1 | cytotoxicity at 10 µM | -0.238 |
| CN1C(=O)CC(C(=O)O)C12CCN(Cc1cc(F)ccc1Cl)CC2 (stereo unspecified) | cytotoxicity at 10 µM | -0.309 |
| CCn1c(C2CCCN(Cc3cc(C)cc(C)c3)C2)nn(C)c1=O (stereo unspecified) | cytotoxicity at 10 µM | -3.12 |
| NC(=O)c1ccc(NC(=O)N2CCN(c3cccs3)CC2)c(F)c1 | cytotoxicity at 10 µM | 1.97 |
| CN(C)[C@@H]1CN(C(=O)CCc2ccccc2)[C@@H]2CCCO[C@H]12 | cytotoxicity at 10 µM | -3.02 |
| CNC(=O)[C@@]12CCO[C@@H]1CCN(S(=O)(=O)c1cccc(F)c1)C2 | cytotoxicity at 10 µM | -73.8 |
